Known GI50 of a selection of molecules
Test system: CH1
Assay: Growth inhibition of doxorubicin-resistant human CH1 cells after 96 hrs by sulforhodamine B assay
Assay type: functional
Condition: CH1, 96 h

These recorded examples may help you get a feel for the data.
Molecule: CC[C@@H](Nc1nc(NCc2ccccn2)c2ncn(C(C)C)c2n1)C(C)(C)O
GI50: > 50 µM
//
Molecule: CC[C@H](Nc1nc(NCc2ccccn2)c2ncn(C(C)C)c2n1)C(O)C(C)C (mixture of isomers)
GI50: > 50 µM

API: value(readout= GI50, system= CH1, query= CC[C@@H](Nc1nc(NCc2ccccn2)c2ncn(C(C)C)c2n1)C(O)C(C)C (mixture of isomers) )
> 50 µM
